// UniProt P22303 pIC50 records
Sequence (P22303 whole entry): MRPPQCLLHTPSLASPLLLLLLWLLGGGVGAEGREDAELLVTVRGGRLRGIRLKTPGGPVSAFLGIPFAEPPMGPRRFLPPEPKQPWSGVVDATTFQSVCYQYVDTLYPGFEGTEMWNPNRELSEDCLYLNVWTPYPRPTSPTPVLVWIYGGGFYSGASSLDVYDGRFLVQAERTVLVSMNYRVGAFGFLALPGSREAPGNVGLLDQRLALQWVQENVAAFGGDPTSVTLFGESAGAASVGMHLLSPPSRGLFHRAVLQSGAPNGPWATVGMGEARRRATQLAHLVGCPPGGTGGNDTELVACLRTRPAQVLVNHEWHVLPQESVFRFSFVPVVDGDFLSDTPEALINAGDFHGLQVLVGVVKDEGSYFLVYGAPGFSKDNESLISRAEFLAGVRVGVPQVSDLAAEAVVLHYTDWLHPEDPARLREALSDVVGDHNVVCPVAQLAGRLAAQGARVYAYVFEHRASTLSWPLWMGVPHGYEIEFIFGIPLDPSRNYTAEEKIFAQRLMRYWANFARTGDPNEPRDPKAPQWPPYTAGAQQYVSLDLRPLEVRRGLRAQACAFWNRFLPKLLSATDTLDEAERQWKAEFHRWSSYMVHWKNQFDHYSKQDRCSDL
pIC50: −log10 of the molar value.
recorded_metric: pIC50

mol | assay_target | recorded_metric | numeric_result
O=C(NCCCNc1c2c(nc3ccccc13)CCCC2)c1ccc(F)cc1 | UniProt P22303 | pIC50 | 9.09
O=C(NCCCCNc1c2c(nc3ccccc13)CCCC2)c1ccc(F)cc1 | UniProt P22303 | pIC50 | 9.11
O=C(NCCNc1c2c(nc3ccccc13)CCCC2)c1ccc(F)cc1 | UniProt P22303 | pIC50 | 9.09

---

molecular target: Cholinesterase (Homo sapiens)
Sequence (P06276 whole entry): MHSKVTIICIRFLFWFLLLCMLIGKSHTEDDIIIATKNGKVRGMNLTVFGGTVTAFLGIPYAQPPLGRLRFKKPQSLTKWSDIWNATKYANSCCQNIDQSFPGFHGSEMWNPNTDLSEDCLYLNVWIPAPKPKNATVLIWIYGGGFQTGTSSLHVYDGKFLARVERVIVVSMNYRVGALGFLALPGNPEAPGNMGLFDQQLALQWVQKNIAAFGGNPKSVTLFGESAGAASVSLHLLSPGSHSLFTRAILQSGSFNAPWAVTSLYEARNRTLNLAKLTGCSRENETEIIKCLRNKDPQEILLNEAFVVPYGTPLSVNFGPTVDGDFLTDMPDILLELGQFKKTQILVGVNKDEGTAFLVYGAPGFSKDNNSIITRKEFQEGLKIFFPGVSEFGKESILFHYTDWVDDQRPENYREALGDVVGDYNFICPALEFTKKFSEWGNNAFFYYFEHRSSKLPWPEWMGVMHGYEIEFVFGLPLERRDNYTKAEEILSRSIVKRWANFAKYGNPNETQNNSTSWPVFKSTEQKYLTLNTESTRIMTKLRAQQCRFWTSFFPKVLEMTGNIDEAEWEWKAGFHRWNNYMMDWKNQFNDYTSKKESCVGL
Reported values of IC50 for individual entries

mol | IC50
O=C(NCCCNc1c2c(nc3ccccc13)CCCC2)c1ccc(F)cc1 | 0.0212 nM
O=C(NCCNc1c2c(nc3ccccc13)CCCC2)c1ccc(F)cc1 | 0.0449 nM
O=C(NCCCCNc1c2c(nc3ccccc13)CCCC2)c1ccc(F)cc1 | 0.0354 nM
